# testSummary: NCI Yeast Anticancer Drug Screen. Data for the bub3 strain (AID 167)
# conditions: S. cerevisiae bub3 mutant strain, at 50.0 µM, hits give high values
# Procedure: Growth inhibition of yeast strains with defined genetic alterations is measured as a screen for potential anti-cancer activity. Selected strains with alterations in DNA damage repair or cell cycle control were exposed to compounds and growth inhibition was measured relative to vehicle treated controls. The strain used in this assay is bub3
This is part of a sample that, as a whole, favours compounds with a hit. Of some 79,000 tested, about 15% had one in any assay.
measureName: growth inhibition (%)
All answers are understood in %, so give the number only.

Example cases with answers are listed next.
{"columns": ["compound", "measureName", "unitSpec", "dataValue"],
 "data": [
  ["CC1(C)OC(=O)C(=CN(C2CCCCC2)C2CCCCC2)C(=O)O1", "growth inhibition", "%", -33.6],
  ["[N-]=[N+]=NC1CCOC(n2cnc3c(N)ncnc32)C1O (stereo not drawn)", "growth inhibition", "%", -4.6]
]}

Switching to the query record.
Input: Entry under review: O=c1[nH]cnc2c1ncn2C1CCC(CO)O1 (stereo not drawn) . Reported growth inhibition?
Output: 1.85

###

# testSummary: NCI Yeast Anticancer Drug Screen. Data for the mlh1 rad18 strain (AID 175)
# conditions: S. cerevisiae mlh1 rad18 strain growth inhibition; at 50.0 µM
Compounds without any hit were thinned out: in the full panel of roughly 79,000, 15% have a hit. The source made the active and inactive calls. Rule as the data show it: active = growth inhibition above about 70%; inactive = the rest.
Respond only with the outcome that fits, drawn from active, inactive

See these solved cases before continuing.
{"columns": ["molecule", "assignedCategory"],
 "data": [
  ["CC(=O)C1(N=Nc2ccc(S(N)(=O)=O)cc2)CCOC1=O (configuration not stated)", "inactive"],
  ["CC(C)(C)c1c(C#N)nnc2cc(-c3ccccc3)nn12", "inactive"],
  ["O=C1C(=S)Nc2c(F)cccc21", "inactive"],
  ["CCC(=O)c1c2c(cc3ccccc13)CCCC2", "inactive"]
]}

Input: Tell me the assay call for `COC(=O)CCNC(=O)c1ccccc1` please.
Output: inactive

Input: Entry `O=C(COc1ccc(Cl)c(Cl)c1)NCc1ccc(Cl)cc1` please
Output: inactive

Input: Entry O=C1OCC=C1COC1OC(CO)C(O)C(O)C1O (configuration not stated) please
Output: inactive

Input: Entry CN(C)C1=NC(NCc2ccccc2)(N(C)C)OC(N(C)C)=N1 (configuration not stated) please
Output: inactive

Input: Entry `O=C(O)c1cc(C(=O)Nc2cccc3ccccc23)c(C(=O)O)cc1C(=O)Nc1cccc2ccccc12` please
Output: inactive

Input: Entry `CCOC(=O)c1nc2ccccc2nc1Nc1ccc(F)cc1` please
Output: inactive

Input: Entry `Cc1cc(Br)cc(Cl)c1O` please
Output: inactive

Input: Entry `OCCN(CCO)c1ccc(O)cc1` please
Output: inactive

Input: Entry `CCOC(=O)c1cnc(SC)nc1Nc1cccc(Cl)c1Cl` please
Output: inactive

###

# testSummary: NCI Yeast Anticancer Drug Screen. Data for the rad50 strain (AID 155);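 also: 0% = growth of vehicle-only cultures of the same strain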
# conditions: S. cerevisiae rad50 strain growth inhibition; at 50.0 µM; hits give high values
The panel holds about 79,000 compounds, 15% with a hit somewhere; the sample as a whole holds those more often.
Reported growth inhibition values for a set of compounds
All answers are understood in %, so give the number only.

Example cases with answers are listed next.
{"columns": ["smilesCode", "growth inhibition, %"],
 "data": [
  ["C/C=N\\C(N)=S", 1.45],
  ["CC(C)CCNCCCCCCl", 62.5],
  ["O=C1C=CC(=Nc2ccc(OC(=O)c3ccccc3)cc2)C=C1", 9.9]
]}

Input: Entry under review: `O=NN(CCCl)C(=O)NCCc1cccc[n+]1[O-]` . Reported growth inhibition?
Output: 2.6

###

Reported growth inhibition values for a set of molecules
# testSummary: NCI Yeast Anticancer Drug Screen. Data for the mec2-1 strain (AID 157)
# conditions: S. cerevisiae mec2-1 strain, at 50.0 µM, hits give high values
The panel holds about 79,000 compounds, 15% with a hit somewhere; the sample as a whole holds those more often.
All answers are understood in %, so give the number only.

{"columns": ["molecule", "unitSpec", "growth inhibition"],
 "data": [
  ["O=C1NC(N2CCCCC2)=N/C1=C\\c1ccc(Cl)cc1", "%", -7]
]}

Switching to the query record.
Input: Entry under review: Cc1ccc(S(=O)(=O)C2c3nc4ccccc4cc3-c3nc4ccccc4nc32)cc1 (centres undefined) . Reported growth inhibition?
Output: -13.2

###

Reported growth inhibition values for a set of molecules
# testSummary: NCI Yeast Anticancer Drug Screen. Data for the cln2 rad14 strain (AID 165);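 also: 0% = growth equal to vehicle treated cultures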
# conditions: S. cerevisiae cln2 rad14 strain, at 50.0 µM, hits give high values
Compounds without any hit were thinned out: in the full panel of roughly 79,000, 15% have a hit.
All answers are understood in %, so give the number only.

{"columns": ["molecule", "measureName", "dataValue"],
 "data": [
  ["Cc1ccc(NC2=N/C(=C/c3ccco3)C(Cl)=N2)cc1", "growth inhibition", -1.8],
  ["CCOC(=O)Nc1nn(-c2ccc3ccccc3n2)c(=O)[nH]1", "growth inhibition", 11.9],
  ["NC(N)=NCC1CCCCCCN1 (stereo not drawn)", "growth inhibition", 18.6]
]}

Input: Entry under review: `CCCc1nnnn1C12CC3CC(CC(C3)C1)C2` . Reported growth inhibition?
Output: 2.2

Input: Entry `O=C(Oc1ccccc1)c1ccc(C(=O)Oc2ccccc2)cc1` please
Output: 3.9

Input: Entry CCOC(=O)C(C#N)CCC(C)=O (stereo not drawn) please
Output: -24.4

Input: Entry `O=c1[nH]ncc(N/N=C(/C=C/c2ccc(C/C(=N/Nc3cn[nH]c(=O)c3Cl)c3ccccc3)cc2)c2ccccc2)c1Cl` please
Output: -15.6

Input: Entry `COc1ccccc1N/C(=C\C(=O)C(=O)NC12CC3CC(CC(C3)C1)C2)c1ccccc1` please
Output: 2.25

###

Reported growth inhibition values for a set of compounds
# testSummary: NCI Yeast Anticancer Drug Screen. Data for the mlh1 rad18 strain (AID 175)
# conditions: S. cerevisiae mlh1 rad18 strain growth inhibition; at 50.0 µM; hits give high values
The panel holds about 79,000 compounds, 15% with a hit somewhere; the sample as a whole holds those more often.
All answers are understood in %, so give the number only.

{"columns": ["compound", "growth inhibition, %"],
 "data": [
  ["Nc1ncnc(N)c1NC(=O)c1cccc(C(=O)c2ccccc2)c1", 0.85]
]}

Switching to the query record.
Input: Entry under review: `CC(=O)Oc1ccc(OC(C)=O)c(C(=O)O)c1` . Reported growth inhibition?
Output: 17.4

###

Reported growth inhibition values for a set of compounds
# testSummary: NCI Yeast Anticancer Drug Screen. Data for the mec2-1 strain (AID 157)
# conditions: S. cerevisiae mec2-1 strain, at 50.0 µM, hits give high values
Compounds without any hit were thinned out: in the full panel of roughly 79,000, 15% have a hit.
All answers are understood in %, so give the number only.

Input: Entry under review: `O=S(=O)(CS(=O)(=O)c1ccc(Br)cc1)c1ccc(Br)cc1` . Reported growth inhibition?
Output: 33.1

Input: Entry CC1OC(c2ccccc2)=CC(OCc2ccccc2)[C@H]1OCc1ccccc1 (some centres not stated) please
Output: -23.6

Input: Entry `O=c1c2cc([N+](=O)[O-])ccc2n2n1CCCC2` please
Output: 9.45

Input: Entry `CC1=C(C(c2ccccc2)c2ccccc2)C(=O)c2ccccc2C1=O` please
Output: -6.5

###

# testSummary: NCI Yeast Anticancer Drug Screen. Data for the cln2 rad14 strain (AID 165);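 also: 0% = growth equal to vehicle treated cultures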
# conditions: S. cerevisiae cln2 rad14 strain, at 50.0 µM
About 79,000 compounds went through this panel and 15% of them were active in at least one assay; those are over-represented in the sample as a whole. The source made the active and inactive calls. Rule as the data show it: active = growth inhibition above about 70%; inactive = the rest.
Respond only with the outcome that fits, drawn from active, inactive

See these solved cases before continuing.
{"columns": ["smilesCode", "assignedCategory"],
 "data": [
  ["CN(CCO)c1nc2c(c(=O)[nH]1)CCC2", "inactive"],
  ["Cn1c(=O)c2c(ncn2C2C(=O)NNC2=O)n(C)c1=O", "inactive"],
  ["CCOC(=O)c1cnc(SC)nc1Nc1cccc(Cl)c1Cl", "active"],
  ["CC(C)OP(=O)(OC(C)C)/C(N)=N/Nc1ccc([N+](=O)[O-])cc1", "inactive"]
]}

Input: Tell me the assay call for `CCCCN=CC(Cl)(Cl)C(=O)OCC` please.
Output: inactive

###

# testSummary: NCI Yeast Anticancer Drug Screen. Data for the mlh1 rad18 strain (AID 175)
# conditions: S. cerevisiae mlh1 rad18 strain growth inhibition; at 50.0 µM; hits give high values
Compounds without any hit were thinned out: in the full panel of roughly 79,000, 15% have a hit.
Reported growth inhibition values for a set of compounds
All answers are understood in %, so give the number only.

{"columns": ["compound", "measureName", "unitSpec", "dataValue"],
 "data": [
  ["CC(=O)OCC(OC(C)=O)C(OC(C)=O)C(OC(C)=O)C1OC(=O)C(OC(C)=O)C1OC(C)=O (configuration not stated)", "growth inhibition", "%", 9.9],
  ["COC(=O)C(=O)c1c(-c2cccnc2)[nH]c2ccccc12", "growth inhibition", "%", 4],
  ["Cc1cccc(-n2c(N)cc(=O)[nH]c2=S)n1", "growth inhibition", "%", -4.15],
  ["N/N=C(/Cc1nc2ccc(C(=O)c3ccccc3)cc2[nH]c1=O)C(=O)Nc1ccc([N+](=O)[O-])cc1[N+](=O)[O-]", "growth inhibition", "%", 15.6],
  ["O=C(O)C(CCc1ccccn1)c1ccccc1 (configuration not stated)", "growth inhibition", "%", -0.55]
]}

Input: Entry under review: `CN1CCn2c(Br)ccc2C1=O` . Reported growth inhibition?
Output: -3.3

Input: Entry O=C(Nc1cccc(Cl)c1)C(Br)C(Br)c1ccccc1 (configuration not stated) please
Output: 98.7

Input: Entry NC(=O)OCC(COc1ccc(Cl)cc1)OC(=O)c1cc([N+](=O)[O-])cc([N+](=O)[O-])c1 (configuration not stated) please
Output: 8.75

Input: Entry `C(=N\C(/N=C/c1ccccc1)c1ccccc1)/c1ccccc1` please
Output: -6.2

Input: Entry `CCc1ccccc1NC(=O)/C(CC(=O)c1c(C)n([O-])c2ccccc2[n+]1=O)=N\NS(=O)(=O)c1ccc(C)cc1` please
Output: 2.5

Input: Entry `N=C(N)c1ccc(C(=N)N)cc1` please
Output: -33.2
